system: K24384-001-R-PDC complex spheroid growth; assay: Anticancer human tumor K24384-001-R-PDC patient-derived pancreatic adenocarcinoma cell line growth inhibition [AhR]; conditions: second compound 10 µM; first compound 3.16 µM; active means viability on the fitted dose curve at most 10% of control; inactive means the rest
Outcome field: choose from active, inactive

molecule: Nc1ccccc1NC(=O)c1ccc(CNC(=O)OCc2cccnc2)cc1 + Cc1cncc(-c2nc(NCCc3c[nH]c4ccccc34)c3ncn(C(C)C)c3n2)c1
test.target: K24384-001-R-PDC complex spheroid growth
qualitative.label: active

molecule: COc1cc(C2c3cc4c(cc3C(OC3OC5COC(C)OC5C(O)C3O)C3COC(=O)C23)OCO4)cc(OC)c1O (configuration not stated) + CC(CO)NC(=O)c1cc(-c2ccc(Cl)cc2)nn(-c2cnn(C)c2)c1=O
test.target: K24384-001-R-PDC complex spheroid growth
qualitative.label: inactive

molecule: Nc1ccccc1NC(=O)c1ccc(CNC(=O)OCc2cccnc2)cc1 + Cc1ccccc1N=Nc1ccc(NC(=O)c2ccnn2C)c(C)c1
test.target: K24384-001-R-PDC complex spheroid growth
qualitative.label: inactive

molecule: CC1COCCN1c1cc(C2(S(C)(=N)=O)CC2)nc(-c2ccnc3[nH]ccc23)n1 (configuration not stated) + Cc1cncc(-c2nc(NCCc3c[nH]c4ccccc34)c3ncn(C(C)C)c3n2)c1
test.target: K24384-001-R-PDC complex spheroid growth
qualitative.label: inactive

molecule: Nc1ccccc1NC(=O)c1ccc(CNC(=O)OCc2cccnc2)cc1 + CC(CO)NC(=O)c1cc(-c2ccc(Cl)cc2)nn(-c2cnn(C)c2)c1=O
test.target: K24384-001-R-PDC complex spheroid growth
qualitative.label: inactive

molecule: CC(C)c1c(-c2ccccc2)nc2c(C#N)c[nH]n2c1=O + Cc1ccccc1N=Nc1ccc(NC(=O)c2ccnn2C)c(C)c1
test.target: K24384-001-R-PDC complex spheroid growth
qualitative.label: inactive

Lookup: What outcome does the record of this test show for CC1COCCN1c1cc(C2(S(C)(=N)=O)CC2)nc(-c2ccnc3[nH]ccc23)n1 (configuration not stated) + Cc1ccccc1N=Nc1ccc(NC(=O)c2ccnn2C)c(C)c1 ?
Found: inactive

Lookup: What outcome does the record of this test show for COc1cccc2c1C(=O)c1c(O)c3c(c(O)c1C2=O)CC(O)(C(=O)CO)CC3OC1CC(N)C(O)C(C)O1 (configuration not stated) + Cc1ccccc1N=Nc1ccc(NC(=O)c2ccnn2C)c(C)c1 ?
Found: active

Lookup: What outcome does the record of this test show for COc1ccc([C@@H](O)c2cc(-c3ncnc4cc(N5CCOCC5)ccc34)c(F)cc2Cl)nn1 + CC(CO)NC(=O)c1cc(-c2ccc(Cl)cc2)nn(-c2cnn(C)c2)c1=O ?
Found: inactive

Lookup: What outcome does the record of this test show for O=C(C=Cc1cccc(S(=O)(=O)Nc2ccccc2)c1)NO + Cc1ccccc1N=Nc1ccc(NC(=O)c2ccnn2C)c(C)c1 ?
Found: inactive

Lookup: What outcome does the record of this test show for COc1cccc2c1C(=O)c1c(O)c3c(c(O)c1C2=O)CC(O)(C(=O)CO)CC3OC1CC(N)C(O)C(C)O1 (configuration not stated) + CC(CO)NC(=O)c1cc(-c2ccc(Cl)cc2)nn(-c2cnn(C)c2)c1=O ?
Found: active

Lookup: What outcome does the record of this test show for COc1cc(Nc2ncc3c(n2)-c2ccc(Cl)cc2C(c2c(F)cccc2OC)=NC3)ccc1C(=O)O + CC(CO)NC(=O)c1cc(-c2ccc(Cl)cc2)nn(-c2cnn(C)c2)c1=O ?
Found: inactive
